All figures here come from patent US9518052B2.

Structures can show the parent of a compound that is named as a salt.
For JAK2 (Homo sapiens (Human), UniProt O60674), measured log10 IC50 is reported for the entries below.
Hey, these are logged values: log10 of IC50, nM being the unit before logging.

CCc1cc(O)ccc1-c1cc2[nH]ncc2c(N2CCc3ccc(S(=O)(=O)NCCN4CCCC4)cc3C2)n1 [Example 116, formate]: 1.00
CCc1cc(O)c(F)cc1-c1cc2[nH]nc(C(=O)NC)c2c(NCc2ccccc2N(C)S(N)(=O)=O)n1: 1.27
CCS(=O)(=O)N(C)c1ccccc1CNc1nc(-c2cc(F)c(O)cc2CC(F)(F)F)cc2[nH]nc(C(N)=O)c12: 1.67
CN(c1ncc(F)cc1CNc1nc(-c2cc(F)c(O)cc2CC(F)(F)F)cc2[nH]nc(C(N)=O)c12)S(C)(=O)=O: 1.60
CC(C)CNc1nc(-c2cc(F)c(O)cc2CC(F)(F)F)nc2[nH]ncc12: 2.38

Attention now shifts to the item below.
What log10 IC50 value was documented for this molecule, CCc1cc(O)c(F)cc1-c1cc2[nH]nc(-c3ncc[nH]3)c2c(NCc2ccccc2N(C)S(C)(=O)=O)n1 ? 1.18

* * *

Target: JAK1 (Homo sapiens (Human))
Sequence (P23458 whole entry, species assumed): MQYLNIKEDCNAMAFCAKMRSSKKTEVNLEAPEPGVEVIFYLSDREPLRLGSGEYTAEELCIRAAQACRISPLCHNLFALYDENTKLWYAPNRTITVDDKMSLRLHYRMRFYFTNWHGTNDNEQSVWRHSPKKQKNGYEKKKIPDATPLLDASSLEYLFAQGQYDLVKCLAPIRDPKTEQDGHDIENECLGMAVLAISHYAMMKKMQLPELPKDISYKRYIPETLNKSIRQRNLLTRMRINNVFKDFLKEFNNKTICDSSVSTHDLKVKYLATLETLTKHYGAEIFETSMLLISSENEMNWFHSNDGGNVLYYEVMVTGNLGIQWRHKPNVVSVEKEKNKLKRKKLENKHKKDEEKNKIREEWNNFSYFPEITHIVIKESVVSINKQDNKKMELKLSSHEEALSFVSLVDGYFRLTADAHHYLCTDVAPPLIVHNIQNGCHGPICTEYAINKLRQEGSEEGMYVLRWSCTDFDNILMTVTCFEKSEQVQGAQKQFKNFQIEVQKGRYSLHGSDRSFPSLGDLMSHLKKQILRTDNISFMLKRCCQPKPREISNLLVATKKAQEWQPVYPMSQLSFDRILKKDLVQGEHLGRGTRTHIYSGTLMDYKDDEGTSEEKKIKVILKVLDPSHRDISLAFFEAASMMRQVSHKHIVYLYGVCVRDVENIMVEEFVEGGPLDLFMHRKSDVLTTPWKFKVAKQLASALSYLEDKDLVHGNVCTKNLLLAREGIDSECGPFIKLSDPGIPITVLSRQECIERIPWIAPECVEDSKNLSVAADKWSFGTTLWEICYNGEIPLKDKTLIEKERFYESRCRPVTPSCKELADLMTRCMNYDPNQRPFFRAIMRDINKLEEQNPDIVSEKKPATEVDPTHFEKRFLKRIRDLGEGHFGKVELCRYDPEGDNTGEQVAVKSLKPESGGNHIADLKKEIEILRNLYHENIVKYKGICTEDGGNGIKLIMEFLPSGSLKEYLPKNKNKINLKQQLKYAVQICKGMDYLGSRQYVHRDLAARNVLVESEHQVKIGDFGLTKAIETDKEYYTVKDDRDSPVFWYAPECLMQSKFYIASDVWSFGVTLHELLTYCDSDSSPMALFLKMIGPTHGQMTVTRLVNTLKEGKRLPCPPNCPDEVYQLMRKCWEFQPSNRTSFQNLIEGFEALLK
Counter-ions that a name gives are not always drawn.
Below: a set of entries, each annotated with reported IC50.
Answer format: numeric, nM implied, no suffix.

Lab note: need IC50 for CCc1cc(O)c(F)cc1-c1cc2[nH]nc(C(=O)NC)c2c(NCc2ccc(O)cc2N(C)S(C)(=O)=O)n1 on JAK1 (Homo sapiens (Human)), anyone have it? 1.5

Continue with CC(CO)CNc1nc(-c2cc(F)c(O)cc2CC(F)(F)F)nc2[nH]nc(-c3nc4c([nH]3)CCN(Cc3ccccc3)C4)c12 (centres unmarked) 9.3

Continue with CNC(=O)c1n[nH]c2cc(-c3cc(F)c(O)cc3CC(F)(F)F)nc(NCC(C)C)c12 6.3

Continue with CCc1cc(O)ccc1-c1cc2[nH]ncc2c(NCc2ccccc2N(C)S(C)(=O)=O)n1 [Example 125, hydrochloride] 0.2

Continue with CCc1cc(O)c(F)cc1-c1cc2[nH]ncc2c(N(CCc2ccc(OC)c(OC)c2)Cc2ccccc2N(C)S(C)(=O)=O)n1 [Example 129, hydrochloride] 11.6

Continue with CCN(c1nccnc1CNc1nc(-c2cc(F)c(O)cc2CC(F)(F)F)cc2[nH]nc(C(N)=O)c12)S(C)(=O)=O 2.9

Continue with CN(c1ccccc1CNc1nc(-c2cc(F)c(O)cc2CC(F)(F)F)cc2[nH]ncc12)S(C)(=O)=O 1.8

* * *

Below: a set of entries, each annotated with reported IC50.
Biological target: JAK2 (Homo sapiens (Human))
Assay: JAK Caliper Enzyme Assay at 1 mM ATP (JAK2)
Assay type: biochemical
Details: Caliper assay at 1 mM ATP
Answer format: numeric, nM implied, no suffix.

CNC(=O)c1n[nH]c2cc(-c3cc(F)c(O)cc3CC(F)(F)F)nc(NCc3ccccc3N(C)S(=O)(=O)CCOC)c12: 29.2

Attention now shifts to the item below.
What IC50 value was documented for this compound, CCc1cc(O)ccc1-c1cc2[nH]ncc2c(N2CCC(OC)CC2)n1 ? 12.6

* * *

Biological target: JAK1 (Homo sapiens (Human))
Where a name gives a salt, the structure may show the parent alone.
// NB: equality with 5 nM counts as no (0); only IC50 strictly below is yes (1)

Below are worked cases with known answers.
CS(=O)(=O)N(CCO)c1ccccc1CNc1nc(-c2cc(F)c(O)cc2CC(F)(F)F)nc2[nH]nc(C(N)=O)c12 [Example 101]: no (0)
CCN(c1ccccc1CNc1nc(-c2cc(F)c(O)cc2CC(F)(F)F)cc2[nH]nc(C(N)=O)c12)S(C)(=O)=O [Example 90]: yes (1)
CCN(c1ccccc1CNc1nc(-c2cc(F)c(O)cc2CC(F)(F)F)cc2[nH]nc(C(N)=O)c12)S(=O)(=O)CC [Example 82]: no (0)
CCc1cc(O)c(F)cc1-c1cc2[nH]ncc2c(NCc2cc(Cl)ccc2N(C)S(C)(=O)=O)n1 [Example 133, hydrochloride]: yes (1)
CCc1cc(O)c(F)cc1-c1cc2[nH]nc(C(N)=O)c2c(NCc2ccc(O)cc2N(C)S(C)(=O)=O)n1 [Example 30]: yes (1)

Does the reported IC50 of the following compound sit strictly below 5 nM? CNC(=O)c1n[nH]c2cc(-c3cc(F)c(O)cc3CC(F)(F)F)nc(NCc3ccccc3N(C)S(=O)(=O)c3cn(C)cn3)c12 [Example 59] no (0)

Continue with CCc1cc(O)ccc1-c1cc2[nH]ncc2c(N2CC(Oc3cc(C#N)ccc3Cl)C2)n1 [Example 120, formate] no (0)

* * *

Biological target: JAK2 (Homo sapiens (Human), UniProt O60674)
Sequence (O60674 whole entry, species assumed): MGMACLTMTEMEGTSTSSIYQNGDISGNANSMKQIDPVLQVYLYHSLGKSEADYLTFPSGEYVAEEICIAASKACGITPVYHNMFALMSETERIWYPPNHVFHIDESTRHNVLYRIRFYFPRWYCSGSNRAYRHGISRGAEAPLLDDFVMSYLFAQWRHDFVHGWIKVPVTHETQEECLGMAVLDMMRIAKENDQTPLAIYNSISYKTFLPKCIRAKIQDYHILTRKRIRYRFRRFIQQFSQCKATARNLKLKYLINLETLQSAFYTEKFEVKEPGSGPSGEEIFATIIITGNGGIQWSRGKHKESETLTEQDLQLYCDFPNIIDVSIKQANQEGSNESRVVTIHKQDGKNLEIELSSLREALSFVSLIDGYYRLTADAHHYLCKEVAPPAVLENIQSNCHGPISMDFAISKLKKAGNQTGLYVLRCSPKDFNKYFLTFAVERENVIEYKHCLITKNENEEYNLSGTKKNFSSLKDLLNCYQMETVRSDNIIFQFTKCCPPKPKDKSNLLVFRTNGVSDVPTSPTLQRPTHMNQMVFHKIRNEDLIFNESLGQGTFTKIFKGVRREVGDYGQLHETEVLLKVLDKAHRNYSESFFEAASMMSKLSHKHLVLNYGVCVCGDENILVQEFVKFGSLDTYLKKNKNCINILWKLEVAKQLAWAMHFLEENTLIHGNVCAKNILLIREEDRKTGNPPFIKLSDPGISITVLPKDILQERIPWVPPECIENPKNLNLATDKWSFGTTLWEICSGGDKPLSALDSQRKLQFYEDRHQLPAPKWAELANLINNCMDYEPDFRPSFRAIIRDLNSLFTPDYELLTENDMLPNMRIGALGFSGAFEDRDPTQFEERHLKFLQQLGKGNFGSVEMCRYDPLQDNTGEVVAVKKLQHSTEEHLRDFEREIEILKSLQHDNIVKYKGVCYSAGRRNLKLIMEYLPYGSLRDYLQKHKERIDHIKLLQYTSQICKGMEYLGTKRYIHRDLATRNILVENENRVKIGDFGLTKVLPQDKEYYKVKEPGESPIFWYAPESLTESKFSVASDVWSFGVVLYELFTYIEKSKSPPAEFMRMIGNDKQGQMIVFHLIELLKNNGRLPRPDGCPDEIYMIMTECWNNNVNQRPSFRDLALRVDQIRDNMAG
Experiment: JAK Caliper Enzyme Assay at 1 mM ATP (JAK2)
Assay type: biochemical
Conditions: Caliper assay at 1 mM ATP
Structures can show the parent of a compound that is named as a salt.
Below: a set of entries, each annotated with reported pIC50.
pIC50 here: minus log base 10 of the concentration, concentration in moles per litre.

Lab note: need pIC50 for CCN(c1ccc(O)cc1CNc1nc(-c2cc(F)c(O)cc2CC(F)(F)F)cc2[nH]nc(C(=O)NC)c12)S(C)(=O)=O on JAK2 (Homo sapiens (Human), UniProt O60674), anyone have it? 7.56

Continue with CCc1cc(O)c(F)cc1-c1cc2[nH]ncc2c(N(C)Cc2cc(C)ccc2N(CC)S(C)(=O)=O)n1 8.10

Continue with CCc1cc(O)c(F)cc1-c1cc2[nH]ncc2c(NCc2cc(C)ccc2N(C)S(C)(=O)=O)n1 [Example 132, hydrochloride] 7.50

Continue with CNC(=O)c1n[nH]c2cc(-c3cc(F)c(O)cc3CC(F)(F)F)nc(NCC3CCCC3)c12 7.28

Continue with CNC(=O)c1n[nH]c2nc(-c3cc(F)c(O)cc3CC(F)(F)F)nc(NCc3ccccc3N(C)S(=O)(=O)NC)c12 7.57

Continue with CCc1cc(O)c(F)cc1-c1cc2[nH]ncc2c(N(C)Cc2ccccc2N(C)S(C)(=O)=O)n1 [Example 146, hydrochloride] 8.29

Continue with CCc1cc(O)c(F)cc1-c1cc2[nH]nc(C(=O)NC)c2c(N[C@@H](C)c2ccccc2N(C)S(C)(=O)=O)n1 7.32

Continue with CN(c1ncc(Cl)cc1CNc1nc(-c2cc(F)c(O)cc2CC(F)(F)F)cc2[nH]nc(C(N)=O)c12)S(C)(=O)=O 6.87

Continue with CCc1cc(O)c(F)cc1-c1cc2[nH]ncc2c(NCc2ccccc2N(CCO)S(C)(=O)=O)n1 8.33

Continue with CNC(=O)c1n[nH]c2cc(-c3cc(F)c(O)cc3CC(F)(F)F)nc(NCc3ccccc3N(C)S(=O)(=O)N(C)C)c12 7.03

Continue with CNC(=O)c1n[nH]c2cc(-c3cc(F)c(O)cc3CC(F)(F)F)nc(NCc3ncccc3N(C)S(C)(=O)=O)c12 7.86

Continue with CCCN(c1ccccc1CNc1nc(-c2cc(F)c(O)cc2CC)cc2[nH]ncc12)S(C)(=O)=O 9.52

Continue with CCc1cc(O)c(F)cc1-c1cc2[nH]nc(C(=O)NC)c2c(NCc2cc(Cl)ccc2N(C)S(C)(=O)=O)n1 7.80

Continue with CCc1cc(O)c(F)cc1-c1cc2[nH]ncc2c(N(CCN2CCOCC2)Cc2ccccc2N(C)S(C)(=O)=O)n1 7.27
